Each entry below carries its recorded switch fluorescence ratio.
Tested on: ATP;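 further: ATP exposure 15 min at 22 °C before imaging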
Assay: switch fluorescence ratio, 500 uM ATP over buffer (Cy3 cluster intensity, sum of 5 cycles each) (fold (ratio)); higher = stronger signal-on switching upon ATP binding; sequences stand for … in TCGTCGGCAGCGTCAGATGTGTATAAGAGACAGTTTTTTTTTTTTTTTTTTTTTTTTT…TC
Conditions: aptamer strand: ATP DNA aptamer (quencher-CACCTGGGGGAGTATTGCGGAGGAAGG + anchor), 100 nM annealed; ATP concentration: 500 uM
measure_name: switch fluorescence ratio

> print(dat)
    primary.sequence               measure.name  experimental.value
 1        CCGTTAGGCG  switch fluorescence ratio               0.987
 2        TCGCCGTATG  switch fluorescence ratio               0.999
 3        CTGATTCCTG  switch fluorescence ratio                1.01
 4        TATTTTGGTG  switch fluorescence ratio               0.984
 5        CCGGGCAGAG  switch fluorescence ratio                1.96
 6        CGGGAGGGGG  switch fluorescence ratio                1.06
 7        GGGTGTGTGG  switch fluorescence ratio                   1
 8        GAGGTAGGTC  switch fluorescence ratio               0.994
 9        TTTGAGATTT  switch fluorescence ratio               0.997
10        TGTTAATGTT  switch fluorescence ratio                   1
11        TTTGCAGAAA  switch fluorescence ratio               0.996
12        TACTTTCGTA  switch fluorescence ratio               0.983
13        TTACGGCTGC  switch fluorescence ratio                1.03
14        GGTTTATTAT  switch fluorescence ratio                1.02
15        TTTAGGGGGT  switch fluorescence ratio               0.991
16        CGTGATTTGG  switch fluorescence ratio                1.01
17        CGAAGGCGTA  switch fluorescence ratio                1.03
18        CTATCGGTGA  switch fluorescence ratio               0.977
19        TAACGGGCTG  switch fluorescence ratio                1.07
20        AGAAAGTGGT  switch fluorescence ratio               0.992

====

System: ATP;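 further: ATP exposure 15 min at 22 °C before imaging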
Assay: switch fluorescence ratio, 500 uM ATP over buffer (Cy3 cluster intensity, sum of 5 cycles each) (fold (ratio)); higher = stronger signal-on switching upon ATP binding; sequences stand for … in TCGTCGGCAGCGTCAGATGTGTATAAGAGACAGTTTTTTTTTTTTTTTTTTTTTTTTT…TC
Settings: aptamer strand: ATP DNA aptamer (quencher-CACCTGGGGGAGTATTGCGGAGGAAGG + anchor), 100 nM annealed; ATP concentration: 500 uM
measure_name: switch fluorescence ratio

> print(dat)
    primary.sequence  measured.target               measure.name  experimental.value
 1        TTGAGGAATA              ATP  switch fluorescence ratio               0.992
 2        ACATTTGACG              ATP  switch fluorescence ratio                1.05
 3        CGGCAGAGGG              ATP  switch fluorescence ratio                1.02
 4        TGACGTAAGG              ATP  switch fluorescence ratio               0.994
 5         CCGGTTAGG              ATP  switch fluorescence ratio               0.998
 6        CAGGGAAAGA              ATP  switch fluorescence ratio                   1
 7        AGGCTGCAGT              ATP  switch fluorescence ratio                1.01
 8        ACAAGCTGAC              ATP  switch fluorescence ratio                1.27
 9        GCCAGTATCC              ATP  switch fluorescence ratio               0.997
10        CAGTTGCTCA              ATP  switch fluorescence ratio                1.01
11        AGACAGGGGG              ATP  switch fluorescence ratio                1.11
12        GGCTAAGGTT              ATP  switch fluorescence ratio               0.997
13        CTCGGTTTGG              ATP  switch fluorescence ratio                1.01
14        TGGGAATGAA              ATP  switch fluorescence ratio               0.992
15        TAGTTTTTCC              ATP  switch fluorescence ratio                1.03
16        ATCAGATATG              ATP  switch fluorescence ratio               0.997
17        TTGGGGGGTA              ATP  switch fluorescence ratio               0.987
18        TTAGACTCTG              ATP  switch fluorescence ratio                1.05
19        ATTGCAAATC              ATP  switch fluorescence ratio                1.03
20        TTAGCACGTC              ATP  switch fluorescence ratio                1.08
21        CGAGGGTGTT              ATP  switch fluorescence ratio                1.05
22        TTGTGCTGGG              ATP  switch fluorescence ratio               0.998
23        ATTTTTCTAG              ATP  switch fluorescence ratio                1.01
24        ATGAGTTTTG              ATP  switch fluorescence ratio               0.984
25        ATAAGGGGTG              ATP  switch fluorescence ratio                1.02
26        ATTATGGCGA              ATP  switch fluorescence ratio                1.04
27        CTTGGTTAGT              ATP  switch fluorescence ratio                1.03
28        AAGGCTAATT              ATP  switch fluorescence ratio               0.979
29        TAAAATGGCG              ATP  switch fluorescence ratio                   1
30        TATTTAGGAC              ATP  switch fluorescence ratio                0.99
31        GCTGTTTCGG              ATP  switch fluorescence ratio               0.981
32        GAGCCTTACT              ATP  switch fluorescence ratio                1.38
33        CAGTCATTTT              ATP  switch fluorescence ratio               0.984
34        GTTGACCGGC              ATP  switch fluorescence ratio               0.996
35        TCGTGAGTAG              ATP  switch fluorescence ratio               0.973
36        GGATATGAGG              ATP  switch fluorescence ratio                   1
37        GCGACTAGGT              ATP  switch fluorescence ratio                1.03
38        GAGGGCGTCA              ATP  switch fluorescence ratio               0.995
39        TTGCAGATGG              ATP  switch fluorescence ratio               0.999
40        GGCATAAGGG              ATP  switch fluorescence ratio                1.03
41        GGGTATAAGA              ATP  switch fluorescence ratio               0.998
42        AAGTGCAGGG              ATP  switch fluorescence ratio                0.99
43        AGTTTTTATT              ATP  switch fluorescence ratio                1.03
